Numbers sourced from paper PMC6720511.

- Test system: HepG2
- ASSAY NOTES: MTT cytotoxic assay
- Type: cell-based, human
- CONDITION SUMMARY: Homo sapiens, HepG2, 48 h, mean value ± SD
- Procedure: Three human hepatocarcinoma cell lines (SMMC-7721, HepG2 and Hep3B) and normal hepatocyte cell line (QSG-7701) were maintained in Dulbecco Modified Eagle Medium (DMEM) containing 4.0 mM L-Glutamine and 4500 mg/l Glucose supplemented with 10% (v/v) foetalbovine serum (FBS) and 100 unites/mL penicillin/streptomycin at 37 °C in humidified atmosphere of 5% CO2 and 95% air. […]
PROPERTY MEASURED: log10 IC50 (log10 of the value in µM)

[[record]]
compound = "COC(=O)C1(C)CCCC2(C)c3ccc(C(C)C)cc3-c3c(c4cc(C(C)C)ccc4n3CCN3CCNCC3)C12 (centres unmarked) [Compound 10d]"
readout_value = 0.93

[[record]]
compound = "COC(=O)C1(C)CCCC2(C)c3ccc(C(C)C)cc3-c3c(c4cc(OC)ccc4n3CCN3CCNCC3)C12 (centres unmarked) [Compound 10e]"
readout_value = 0.57

[[record]]
compound = "COC(=O)C1(C)CCCC2(C)c3ccc(C(C)C)cc3-c3c(c4cccc(OC)c4n3CCN3CCNCC3)C12 (centres unmarked) [Compound 10f]"
readout_value = 0.50

[[record]]
compound = "COC(=O)C1(C)CCCC2(C)c3ccc(C(C)C)cc3-c3c(c4ccccc4n3CCN3CCNCC3)C12 (centres unmarked)"
readout_value = 0.36

[[record]]
compound = "COc1cccc2c1C(=O)c1c(O)c3c(c(O)c1C2=O)C[C@@](O)(C(=O)CO)C[C@@H]3O[C@H]1C[C@H](N)[C@H](O)[C@H](C)O1 [Doxorubicin, reference compound]"
readout_value = 0.38

[[record]]
compound = "CCOc1ccc2c(c1)c1c(n2CCN2CCNCC2)-c2cc(C(C)C)ccc2C2(C)CCCC(C)(C(=O)OC)C12 (centres unmarked) [Compound 10g]"
readout_value = -0.29

[[record]]
compound = "CCc1ccc2c(c1)c1c(n2CCN2CCNCC2)-c2cc(C(C)C)ccc2C2(C)CCCC(C)(C(=O)OC)C12 (centres unmarked) [Compound 10c]"
readout_value = 0.86

[[record]]
compound = "COC(=O)C1(C)CCCC2(C)c3ccc(C(C)C)cc3-c3c(c4cc(C)ccc4n3CCN3CCNCC3)C12 (centres unmarked) [Compound 10a]"
readout_value = 0.48

[[record]]
compound = "COC(=O)C1(C)CCCC2(C)c3ccc(C(C)C)cc3-c3c(c4ccccc4n3CCN3CCN(C)CC3)C12 (centres unmarked)"
readout_value = 1.07

[[record]]
compound = "COC(=O)C1(C)CCCC2(C)c3ccc(C(C)C)cc3-c3c(c4ccccc4n3CCN3CCCNCC3)C12 (centres unmarked)"
readout_value = 0.77

[[record]]
compound = "CCN1CCN(CCn2c3c(c4ccccc42)C2C(C)(C(=O)OC)CCCC2(C)c2ccc(C(C)C)cc2-3)CC1 (centres unmarked)"
readout_value = 1.24


---

- Tested on: normal hepatocyte cell line (QSG-7701)
- ASSAY NOTES: MTT cytotoxic assay on normal hepatocytes
- Assay type: cell-based, human
- CONDITION SUMMARY: Homo sapiens, QSG7701, 48 h, mean value ± SD
pIC50: −log10 of the molar value.
// reported pIC50 per item
PROPERTY MEASURED: pIC50

[[record]]
compound = "CCN1CCN(CCn2c3c(c4ccccc42)C2C(C)(C(=O)OC)CCCC2(C)c2ccc(C(C)C)cc2-3)CC1 (centres unmarked)"
sign_qualifier = "="
readout_value = 4.39

[[record]]
compound = "COC(=O)C1(C)CCCC2(C)c3ccc(C(C)C)cc3-c3c(c4cccc(OC)c4n3CCN3CCNCC3)C12 (centres unmarked) [Compound 10f]"
sign_qualifier = "="
readout_value = 4.76

[[record]]
compound = "COC(=O)C1(C)CCCC2(C)c3ccc(C(C)C)cc3-c3c(c4cc(C(C)C)ccc4n3CCN3CCNCC3)C12 (centres unmarked) [Compound 10d]"
sign_qualifier = "="
readout_value = 4.51

[[record]]
compound = "CCOc1cccc2c3c(n(CCN4CCNCC4)c12)-c1cc(C(C)C)ccc1C1(C)CCCC(C)(C(=O)OC)C31 (centres unmarked) [Compound 10h]"
sign_qualifier = "="
readout_value = 4.72

[[record]]
compound = "COC(=O)C1(C)CCCC2(C)c3ccc(C(C)C)cc3-c3c(c4ccccc4n3CCN3CCN(C=O)CC3)C12 (centres unmarked)"
sign_qualifier = "<"
readout_value = 4.30

[[record]]
compound = "COC(=O)C1(C)CCCC2(C)c3ccc(C(C)C)cc3-c3c(c4cc(Cl)ccc4n3CCN3CCNCC3)C12 (centres unmarked) [Compound 10j]"
sign_qualifier = "="
readout_value = 4.91

[[record]]
compound = "COC(=O)C1(C)CCCC2(C)c3ccc(C(C)C)cc3-c3c(c4ccccc4n3CCN3CCCNCC3)C12 (centres unmarked)"
sign_qualifier = "="
readout_value = 4.66

[[record]]
compound = "COC(=O)C1(C)CCCC2(C)c3ccc(C(C)C)cc3-c3c(c4ccccc4n3CCCN3CCN(C)CC3)C12 (centres unmarked)"
sign_qualifier = "<"
readout_value = 4.30

[[record]]
compound = "CCOc1ccc2c(c1)c1c(n2CCN2CCNCC2)-c2cc(C(C)C)ccc2C2(C)CCCC(C)(C(=O)OC)C12 (centres unmarked) [Compound 10g]"
sign_qualifier = "="
readout_value = 4.90

[[record]]
compound = "COc1cccc2c1C(=O)c1c(O)c3c(c(O)c1C2=O)C[C@@](O)(C(=O)CO)C[C@@H]3O[C@H]1C[C@H](N)[C@H](O)[C@H](C)O1 [Doxorubicin, reference compound]"
sign_qualifier = "="
readout_value = 4.86

[[record]]
compound = "COC(=O)C1(C)CCCC2(C)c3ccc(C(C)C)cc3-c3c(c4cc(F)ccc4n3CCN3CCNCC3)C12 (centres unmarked) [Compound 10i]"
sign_qualifier = "="
readout_value = 4.63

[[record]]
compound = "CCc1ccc2c(c1)c1c(n2CCN2CCNCC2)-c2cc(C(C)C)ccc2C2(C)CCCC(C)(C(=O)OC)C12 (centres unmarked) [Compound 10c]"
sign_qualifier = "="
readout_value = 4.65

[[record]]
compound = "COC(=O)C1(C)CCCC2(C)c3ccc(C(C)C)cc3-c3c(c4cc(OC)ccc4n3CCN3CCNCC3)C12 (centres unmarked) [Compound 10e]"
sign_qualifier = "="
readout_value = 4.81

[[record]]
compound = "COC(=O)C1(C)CCCC2(C)c3ccc(C(C)C)cc3-c3c(c4cccc(C)c4n3CCN3CCNCC3)C12 (centres unmarked) [Compound 10b]"
sign_qualifier = "="
readout_value = 4.66

[[record]]
compound = "COC(=O)C1(C)CCCC2(C)c3ccc(C(C)C)cc3-c3c(c4cc(C)ccc4n3CCN3CCNCC3)C12 (centres unmarked) [Compound 10a]"
sign_qualifier = "="
readout_value = 4.79

[[record]]
compound = "COC(=O)C1(C)CCCC2(C)c3ccc(C(C)C)cc3-c3c(c4ccccc4n3CCN3CCNCC3)C12 (centres unmarked)"
sign_qualifier = "="
readout_value = 5.06

[[record]]
compound = "COC(=O)C1(C)CCCC2(C)c3ccc(C(C)C)cc3-c3c(c4ccccc4n3CCN3CCN(C)CC3)C12 (centres unmarked)"
sign_qualifier = "="
readout_value = 4.56

